# Experiment Description: In vivo mouse oral single dose PK
# Assay Setup: oral single dose, estimated based on the percent free fraction
Kindly state free AUCinf for each of the entries shown.
Just the number in ng·h/mL, nothing appended.

Enquiry: Can you share its free AUCinf? I mean this compound: "CCCN1CC(Oc2ccc([C@@H]3c4[nH]c5ccccc5c4C[C@@H](C)N3CC(C)(C)F)cc2)C1"
Return: 1.5

Enquiry: Would you kindly share the measured free AUCinf for "CCCN1CC(Oc2cc(F)c([C@@H]3c4[nH]c5ccccc5c4C[C@@H](C)N3CC(C)(C)F)c(F)c2)C1" ?
Return: 0.3

Enquiry: What free AUCinf value was documented for this compound, "C[C@@H]1Cc2c([nH]c3ccccc23)[C@@H](c2ccc(OCCN3CC(CF)C3)cc2)N1CC(C)(C)F" ?
Return: 3.9

Enquiry: Quick one: free AUCinf for "C[C@@H]1Cc2c([nH]c3ccccc23)[C@@H](c2c(F)cc(OCCN3CC(CF)C3)cc2F)N1CC(C)(C)F" ?
Return: 0.8
